Measured logP accompanies every entry in the list below.
property: logP

• COC(=O)Nc1ccccc1C = 1.69
• CCOc1cccc(NC(=O)OC)c1 = 2.31
• CCOc1ccc(NC(=O)OC)cc1 = 2.15
• CCOc1ccccc1NC(=O)OC = 2.43

###

property: logP

- CCOC(=O)Nc1ccc(OCC)c(OCC)c1: 2.54
- CCOc1ccc(NC(=O)OC(CBr)CBr)cc1OCC: 3.5
- COC(=O)Nc1cccc(Br)c1: 2.75
- COC(=O)Nc1ccc(C)cc1: 2.29
- COC(=O)Nc1ccccc1C(F)(F)F: 2.09
- COC(=O)Nc1cccc(C)c1: 2.29
- CCc1ccc(NC(=O)OC)cc1: 2.72
- CCCCOC(=O)Nc1ccc(OCC)c(OCC)c1: 3.46
- COC(=O)Nc1cccc(OC)c1: 1.92
- CCc1cccc(NC(=O)OC)c1: 2.74
- COC(=O)Nc1cccc(C(F)(F)F)c1: 2.74
- C=CCOC(=O)Nc1ccc(OCC)c(OCC)c1: 2.75
- COC(=O)Nc1cccc(I)c1: 3.03
- CCCOC(=O)Nc1ccc(OCC)c(OCC)c1: 2.93
- COC(=O)Nc1ccc(OC)cc1: 1.73
- COC(=O)Nc1ccccc1I: 2.44
- CCOc1ccc(NC(=O)OCc2ccccc2)cc1OCC: 3.29
- COC(=O)Nc1cccc(C(C)=O)c1: 1.63
- CCOc1ccc(NC(=O)OCCOC)cc1OCC: 2.27
- CCOc1ccc(NC(=O)OC(C)C)cc1OCC: 2.91
- COC(=O)Nc1ccc(F)cc1: 1.95
- COC(=O)Nc1cccc([N+](=O)[O-])c1: 2

src = the OPERA property sets (Mansouri et al. 2018)
